Reported GI50 values are given for each entry in this list.
Tested on: SW-620
test_name: NCI tumour cell line growth inhibition, 48 h
Active and inactive are the calls of the source. Cut-off read from the data, not from the text of the source: active = GI50 up to about 1.1 µM and inactive = higher.

// solved cases for GI50 follow
INSERT INTO measurements (compound, subject_of_test, data_value) VALUES
  ('CCn1c(-c2c(Cl)cc(O)cc2Cl)cc2c(Cl)cc(O)cc21', 'SW-620', '5.69 µM (inactive)'),
  ('CC(=O)C(C(c1ccccc1)N1CCOCC1)N1CCOCC1 (stereo not drawn)', 'SW-620', '> 100 µM (inactive)'),
  ('CCCCCCCCCCC(O)[C@H]1CCC(C2CC[C@H]([C@H](O)CCCCCCCCCCC(O)CC3=CC(C)OC3=O)O2)O1 (stereo partly drawn)', 'SW-620', '1.87 µM (inactive)'),
  ('c1ccc(SC(CCCCOC2CCCCO2)Sc2ccccc2)cc1 (stereo not drawn)', 'SW-620', '76.4 µM (inactive)'),
  ('CC1=CC2CCC1(C)C/C2=C(/C)OC=O (stereo not drawn)', 'SW-620', '> 100 µM (inactive)'),
  ('Clc1ccc(-c2cn3c(nc4ccccc43)c(/C=C/c3ccco3)n2)cc1', 'SW-620', '36.8 µM (inactive)');

Exercise: Suppose we examine the compound N#C/C(=C\c1ccncc1)c1csc2ccccc12 ; what GI50 value has been reported?
Key: 26.5 µM (inactive)

Exercise: Suppose we examine the compound C=C1C(=O)OC2/C=C(\C)CC/C=C(\C)CC(OC(=O)/C(=C/CO)CO)[C@@H]12 (stereo partly drawn) ; what GI50 value has been reported?
Key: 1.69 µM (inactive)
